B1: Osa-1-4 twister ribozyme (parent)
chain: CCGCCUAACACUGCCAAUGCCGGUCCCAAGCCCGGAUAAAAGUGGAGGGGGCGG

Variants of: B1
assay.notes: self-cleavage, relative activity (ratio to wild type); higher = more cleavage; co-transcriptional
Exercise: for every item that follows, state its recorded self-cleavage.
Would you mind answering with just the numeric figure?

Request: Given CCGCCUAACACUGCCAAUGCCGGUCCCAAGCACGCAUAAAAGUGGAGGGGGCGG [C32A G35C] , respond with its self-cleavage.
Result: 0.05

Request: Given CCGCCUAACACUGCCAAUGCCGGUCCCAAGCCCGUAUAAAAGUGGAGUGGGCGG [G35U G48U] , respond with its self-cleavage.
Result: 0.08

Request: Given CCGCCUAACACUGCCAAUGCCAGUCCCAAGCCCGGAUAAAAGUGGAGGCGGCGG [G22A G49C] , respond with its self-cleavage.
Result: 0.08

Request: Given CCGCCUAACACUCCCAUUGCCGGUCCCAAGCCCGGAUAAAAGUGGAGGGGGCGG [A17U G13C] , respond with its self-cleavage.
Result: 0.03

Request: Given CCGCCUAACACUGCCAAUGCCAGUCCCAAGCCCGGAUAAAAGUUGAGGGGGCGG [G22A G44U] , respond with its self-cleavage.
Result: 0.84

Request: Given CCGCCUAACACUGCCAAUGCCGGUCCCCAGCCUGGAUAAAAGUGGAGGGGGCGG [A28C C33U] , respond with its self-cleavage.
Result: 0.86

Request: Given CCGCCUAACACUGCCUAUGCGGGUCCCAAGCCCGGAUAAAAGUGGAGGGGGCGG [A16U C21G] , respond with its self-cleavage.
Result: 0.05

Request: Given CCGCCUAACACUGCCAAUGCCGGUCCCAAGCCCUGAUAAAAGUGGAGUGGGCGG [G34U G48U] , respond with its self-cleavage.
Result: 0.05

Request: Given CCGCCUACCACUGCCAAUGCCGGUCCCAAGCCCGGAUUAAAGUGGAGGGGGCGG [A38U A8C] , respond with its self-cleavage.
Result: 0.09

Request: Given CCGCCUAACACUGCCAAUGCCGGUCCCAAGCCCGAAUAAAAGUGGAGGAGGCGG [G35A G49A] , respond with its self-cleavage.
Result: 0.18

Request: Given CCGCCUAACACUGCCAACGCCGGUCCCAAGCCCGGAUAAAAGUGGAUGGGGCGG [G47U U18C] , respond with its self-cleavage.
Result: 0.24

Request: Given CCGCCUAGCACUACCAAUGCCGGUCCCAAGCCCGGAUAAAAGUGGAGGGGGCGG [A8G G13A] , respond with its self-cleavage.
Result: 0.1

Request: Given CCGCCUAACACUGCCAAUGCCGGUCCCAAGCCCGGAUAGAAGUGGAGGCGGCGG [A39G G49C] , respond with its self-cleavage.
Result: 0.08

Request: Given CCGCCUAACACUGCCAAUGCCGGUACCAAGCCCGGAUAAAAGUCGAGGGGGCGG [C25A G44C] , respond with its self-cleavage.
Result: 0.1

Request: Given CCGCCUAACACUGCCAAUGCCGGUCCCAAGCCCGGAUAAAAGUAGAGGGGGCGA [G44A G54A] , respond with its self-cleavage.
Result: 0.92

Request: Given CCGCCUAACACUGCCAAUGCCGGUCCCUAGCCCGGAUAAAAGUGGAGAGGGCGG [A28U G48A] , respond with its self-cleavage.
Result: 0.06

Request: Given CCGCCUAACACUGCCAAUGCCGCUCCCAAGCCCGGAUAAAAGUGGCGGGGGCGG [A46C G23C] , respond with its self-cleavage.
Result: 0.02

Request: Given CCGCCUAACUCUGCCAAUGCCGGUCCCAAGCCCGGAUAAACGUGGAGGGGGCGG [A10U A41C] , respond with its self-cleavage.
Result: 0.04

Request: Given CCGCCUUUCACUGCCAAUGCCGGUCCCAAGCCCGGAUAAAAGUGGAGGGGGCGG [A7U A8U] , respond with its self-cleavage.
Result: 0.07

Request: Given CCGCCUAACUCUGCCAAUGCCGGUCCCAAGCCCGGAUAAAAGUGGAUGGGGCGG [A10U G47U] , respond with its self-cleavage.
Result: 0.02

Request: Given CCGCCUAACACUGCCAAUGCCGGUCCCAAUCCCGGAUAAAAGUGGAGGCGGCGG [G30U G49C] , respond with its self-cleavage.
Result: 0.02

Request: Given CCGCCUAACGCUGCCAAUGCCGGUCCCAAGACCGGAUAAAAGUGGAGGGGGCGG [A10G C31A] , respond with its self-cleavage.
Result: 0.05

// provenance: the RNAGym collection of RNA variant scans (doi:10.1002/anie.201605470)
